Assay: in vitro
Conditions: human
Where a name gives a salt, the structure may show the parent alone.
Measured viability at 0.5 µM of individual entries
Write the value in % as a bare number.

Reference set (2 entries):
CC(C)C(=O)OC[C@@]1(N=[N+]=[N-])O[C@@H](n2ccc(N)nc2=O)[C@H](OC(=O)C(C)C)[C@@H]1OC(=O)C(C)C [Balapiravir (R1626), Balapiravir]
104
O=C1C(O)=C([C@H]2CC[C@H](c3ccc(Cl)cc3)CC2)C(=O)c2ccccc21
134

Lab note: "Cc1c(-c2ccc(-c3ccccc3F)cc2)nc2ccc(F)cc2c1C(=O)O" gave viability at 0.5 µM of 85

viability at 0.5 µM recorded for this molecule, "O=c1[nH]c(=O)n([C@@H]2O[C@H](CO)[C@@H](O)[C@H]2O)cc1Cl" , is 103

Notebook: "C[C@@]1(O)[C@H](O)[C@@H](CO)O[C@H]1n1ccc(N)nc1=O" , viability at 0.5 µM read as 104

# viability at 0.5 µM (molecule: CN(C)CCOc1ccc(/C(=C(/CCCl)c2ccccc2)c2ccccc2)cc1 [Toremifene citrate] ) is 128

Reported viability at 0.5 µM ( "CO[C@@H]1[C@H](O)[C@@H](CO)O[C@H]1n1ccc(=O)[nH]c1=O" ) = 100

Value of measured viability at 0.5 µM for the entry "Cc1cn([C@H]2C[C@H](N=[N+]=[N-])[C@@H](CO)O2)c(=O)[nH]c1=O" : 105

Value of measured viability at 0.5 µM for the entry "O=c1[nH]c(=O)n([C@@H]2O[C@H](CO)[C@@H](O)[C@H]2O)cc1Br" : 102

Reported viability at 0.5 µM for "O=c1cnn([C@@H]2O[C@H](CO)[C@@H](O)[C@H]2O)c(=S)[nH]1" was 96

The recorded viability at 0.5 µM for entry CN(C)CCCN1c2ccccc2CCc2ccc(Cl)cc21 [Clomipramine HCL] equals 97

Entry under test: "Nc1nc(Cl)nc2c1ncn2[C@@H]1O[C@H](CO)[C@@H](O)[C@H]1O" . Its viability at 0.5 µM was 105

Recorded result, CNCC[C@H](Oc1cccc2ccccc12)c1cccs1 [Duloxetine HCL] , viability at 0.5 µM: 109

For reference, reported viability at 0.5 µM for "CC[C@H](CC#N)OC(=O)N[C@@H](C)c1cccc(NC(=O)Nc2ccc(-c3cnco3)c(OC)c2)c1" stands at 97

Lab note: measured viability at 0.5 µM of "C[C@@]1(O)[C@H](O)[C@@H](CO)O[C@H]1n1ccc(=O)[nH]c1=O" was 100

Consider CN1[C@@H]2CC[C@H]1C[C@@H](OC(c1ccccc1)c1ccccc1)C2 [Benztropine mesylate] . Its measured viability at 0.5 µM is 130
